assay: Solubility of crystal form Form T in different solutions at 37° C. (about 60 mg in 2 mL, 2 h and 24 h; HPLC, pH, XRPD); format: physicochemical; details: simulated gastric fluid, thermodynamic from solid; SGF, 37° C., 24 h
measured.attribute: solubility at 24 h (mg/mL)

>  <compound>
CCc1nc2c(N)ncc(-c3ccc(N4CCC(N5CCN(CC)CC5)CC4)c(OC)c3)c2nc1NC1CCOCC1 [Form T]

>  <observed>
27.3

$$$$

###

experiment: Solubility at 37° C. in buffer solutions with different pH (about 10 mg in 1 ml, 2 h and 24 h); filtrate concentration and pH, XRPD of remaining solid; type: physicochemical; settings: buffer solution pH 6.8, 37 °C, pH 6.8, aqueous buffer, thermodynamic from solid, medium pH 6.8, 24 h; read-out: Solubility at 37° C.

>  <compound>
CCc1nc2c(N)ncc(-c3ccc(N4CCC(N5CCN(CC)CC5)CC4)c(OC)c3)c2nc1NC1CCOCC1 [Form B]

>  <solubility at 24 h / µg/mL>
250

$$$$

###

assay: Solubility of crystal form Form T in different solutions at 37° C. (about 60 mg in 2 mL, 2 h and 24 h; HPLC, pH, XRPD); assay type: physicochemical; conditions: thermodynamic from solid; FeSSIF, 37° C., 2 h

>  <molecule>
CCc1nc2c(N)ncc(-c3ccc(N4CCC(N5CCN(CC)CC5)CC4)c(OC)c3)c2nc1NC1CCOCC1 [Form T]

>  <solubility at 2 h>
18.9 mg/mL

$$$$

###

Assay: Solubility at 37° C. in buffer solutions with different pH (about 10 mg in 1 ml, 2 h and 24 h); filtrate concentration and pH, XRPD of remaining solid
Format: physicochemical
Settings: buffer solution pH 6.8, 37 °C, pH 6.8, aqueous buffer, thermodynamic from solid, medium pH 6.8, 2 h; read-out: Solubility at 37° C.
Experimental: Approximately 10 mg of malate crystal form VII-A and free base Form A were weighed separately, and 1 ml of buffer solutions with different pH were added to make the solution supersaturated, and the mixtures were stirred at 37° C. for 2 h and 24 hours. The samples were filtered, and the filtrates were measured to determine the concentration and pH value, and the remaining solid was subjected to XRPD determination. The specific results were as follows: […]

>  <molecule>
CCc1nc2c(N)ncc(-c3ccc(N4CCC(N5CCN(CC)CC5)CC4)c(OC)c3)c2nc1NC1CCOCC1 [Form B]

>  <solubility at 2 h>
310 µg/mL

$$$$

###

assay: Solubility at 37° C. in buffer solutions with different pH (about 10 mg in 1 ml, 2 h and 24 h); filtrate concentration and pH, XRPD of remaining solid; assay type: physicochemical; conditions: buffer solution pH 1.2, 37 °C, pH 1.2, simulated gastric fluid, thermodynamic from solid, medium pH 1.2, 2 h; read-out: Solubility at 37° C.

>  <compound>
CCc1nc2c(N)ncc(-c3ccc(N4CCC(N5CCN(CC)CC5)CC4)c(OC)c3)c2nc1NC1CCOCC1 [Free base Form A]

>  <solubility at 2 h>
> 10000 µg/mL

$$$$

###

test: Solubility at 37° C. in buffer solutions with different pH (about 10 mg in 1 ml, 2 h and 24 h); filtrate concentration and pH, XRPD of remaining solid; type: physicochemical; details: FeSSIF, 37 °C, fessif, thermodynamic from solid, medium FeSSIF, 24 h; read-out: Solubility at 37° C. (mg/ml) 24 h

>  <molecule>
CCc1nc2c(N)ncc(-c3ccc(N4CCC(N5CCN(CC)CC5)CC4)c(OC)c3)c2nc1NC1CCOCC1 [Malate crystal form VII-A]

>  <solubility at 24 h>
> 10 mg/mL

$$$$

Values were extracted from patent US20250101017A1.
